Origin of measurements: the supplement of paper PMC10567573

Assay: protein stability index of a GFP-peptide fusion (GPS, HEK-293T) (PSI 1-6); higher = more stable;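 further: 24-mer peptide tiles fused after GFP, lentivirally expressed, FACS-sorted into six equal bins by GFP/DsRed ratio, decoded by Illumina sequencing, PSI is the read-weighted mean bin number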
Conditions: treatment: MLN4924 1 uM, 8 h; c terminus: a fixed tail appended
Parameter protein stability index: see the listing below.
Respond with the number and no other words.

Worked examples follow.
EFRDDRDLVMALSAGGHGGLLNDT [KCNA4] | 3.91
GTRYSAPANLYVRELREVRRVPPR [PTPRD] | 3.9
RCINDPYLEVLETMDNKKGRRYEA [CLCN6] | 4.03

# input Tell me measured protein stability index for ANRWSFDGIDRWIKEIDEHAPGVP [RAB40B] please.
# output 3.92

# input Tell me measured protein stability index for SKATFSRNIMNLIDIVAIIPYFIT [KCNA3] please.
# output 3.32

# input Tell me measured protein stability index for LTRPEPVHEFCAGRECQPRWETSS [ADAMTSL2] please.
# output 3.98

# input Tell me measured protein stability index for VRVLESLLVSLVTTVVVFVASMVL [CLCN6] please.
# output 3.3

# input Tell me measured protein stability index for KQSFLDGGKGHHLPSENLGKEPLD [TOR1AIP2] please.
# output 5.01

* * *

Parameter protein stability index: see the listing below.
Test: protein stability index of a GFP-peptide fusion (GPS, HEK-293T) (PSI 1-6); higher = more stable
Settings: treatment: DMSO; c terminus: a fixed tail appended
Respond with the number and no other words.

Worked examples follow.
LPVASSSTLLPLAPSNSTSLNSTF [NFE2L1] | 3.89
MEPSPLSPSGAALPLPLSLAPPPL [ZBTB22] | 4.07

# input Tell me measured protein stability index for CKCGECTAPRTLPSCLACNRQCLC [SPRY1] please.
# output 4.05

* * *

Experiment: protein stability index of a GFP-peptide fusion (GPS, HEK-293T) (PSI 1-6); higher = more stable
Settings: treatment: DMSO; c terminus: a fixed tail appended
Parameter protein stability index: see the listing below.
Respond with the number and no other words.

VKMDQKSKHLKEMYQELMEMCHKP [TRIM43] | 3.03

# input Tell me measured protein stability index for MKLFDSICNNKWFTDTSIILFLNK [GNAI1] please.
# output 2.6

# input Tell me measured protein stability index for KKHYRLQFYMFGWTHVTLLIVVTQ [CDS2] please.
# output 2.89

# input Tell me measured protein stability index for VCSILLGTSTLLVWVGVIRYLTFF [MCOLN1] please.
# output 3.3

# input Tell me measured protein stability index for NIQANNCFSTGLSRRVLLTNVVTG [DCAF4] please.
# output 2.54

# input Tell me measured protein stability index for ELFKKDPGFDRGQFHKQIAVMRGQ [PI4K2A] please.
# output 2.8

# input Tell me measured protein stability index for QLRATAGSLILPPGPGGTMKRHSS [FCHO1] please.
# output 3.87

# input Tell me measured protein stability index for PSSNNKELFYRVNYIGTKNVIETC [NSDHL] please.
# output 2.7

# input Tell me measured protein stability index for KKCCIPETRRRMEMAFNTRCKEEN [NLN] please.
# output 3.57

# input Tell me measured protein stability index for REITGVQAQPGEATSGPPGIQPGQ [PALM] please.
# output 5.37

* * *

Experiment: protein stability index of a GFP-peptide fusion (GPS, HEK-293T) (PSI 1-6); higher = more stable
Details: treatment: MLN4924 1 uM, 8 h; c terminus: a fixed tail appended
value_kind: protein stability index

Worked examples follow.
GNIKGIEGHSPGNLPKFCHECGTK [ZC2HC1A] | 4.59
GATALHFAAEAGHIDIVKELIKWR [FEM1B] | 2.43
LEELTKLQNNCTSSITRQKKRLQE [TMEM120A] | 4.76
LLYDDLYDDDIDDEDEEEEDADCY [UBE2R2] | 4.41
LDPMKNVTCENGLPAVVSCVPGQV [LOXL2] | 4.36

# input Tell me measured protein stability index for TDAGKAFCMFYAVLGIPLTLVMFQ [KCNK9] please.
# output 3.06

# input Tell me measured protein stability index for KYEKLRGDVAIKLKFLEENKIKVM [ARFIP2] please.
# output 2.48

# input Tell me measured protein stability index for SLVWGMVCGQNWGIVEAMVVCRQL [LOXL2] please.
# output 3.07

# input Tell me measured protein stability index for LSALLRATPGEYSVNICGMNEHPV [SPAG8] please.
# output 2.42

# input Tell me measured protein stability index for LRPTSVDPALRRRRRGPRNKKRGW [NOP53] please.
# output 4.29

# input Tell me measured protein stability index for DRDAEDQNRYLDGMVRAHGVRVSV [BET1L] please.
# output 3.87

# input Tell me measured protein stability index for RADCASESACSSDSLDEARSSGSE [PWWP2B] please.
# output 5.53

# input Tell me measured protein stability index for TQIRTITEEIRDGKVISSREHVQS [KRT36] please.
# output 4.86
